All values here come from ChEMBL document CHEMBL1201862.

tested on: RPMI-8226; assay: NCI tumour cell line growth inhibition, 48 h
Activity calls are given as the source filed them. No stated cut-off is given here; in the data, active = GI50 up to about 1.1 µM and inactive = higher.
Kindly state GI50 for each of the entries shown.

CCOC(=O)C1(C(=O)OCC)C[C@H](C)[C@](C)(O)C1 = > 100 µM (inactive)
O=C1CC(C(OCc2ccccc2)C(OCc2ccccc2)C(OCc2ccccc2)C(COCc2ccccc2)OCc2ccccc2)CC(=O)N1 (stereo unspecified) = > 100 µM (inactive)
COc1ccc(/C=C2\CCNC2=O)cc1 = > 100 µM (inactive)

Would you mind listing GI50 for each of the following compounds?
1. Nc1nnc(N)n1N
2. C/C(CC(=O)Nc1ccc(NC(=O)C/C(C)=N\NC(N)=O)cc1)=N/NC(N)=O

Key:
1. > 100 µM (inactive)
2. 24.8 µM (inactive)

Exercise: # GI50 lookup, item Fc1ccccc1C1CC(C(c2ccccc2)c2ccccc2)=Nc2ccccc2S1 (stereo unspecified)
Key: 3.6 µM (inactive)

----------
test system: NCI-H522; assay: NCI tumour cell line growth inhibition, 48 h
Calls of active or inactive are those of the source. No stated cut-off is given here; in the data, active = GI50 up to about 1.1 µM and inactive = higher.
Outcomes you can answer with include only these: 1 = active, 0 = inactive

C[Si](C)(C)CN1C(=O)c2ccccc2C1(O)c1ccccc1 (configuration not stated) = 0
NC(=S)N/N=C1\CCCC1C(O)(C(F)(F)Cl)C(F)(F)Cl (configuration not stated) = 0
Cc1c(C(=O)CC(=O)C(=O)Nc2ccccc2C(F)(F)F)[n+]([O-])c2ccccc2[n+]1[O-] = 0
Nc1ccc2ncc(Nc3ccc(Cl)c(Cl)c3)nc2c1 = 0
COc1ccc(N[C@H]([C@@H](c2ccccc2)[S+]([O-])c2ccc(C)cc2)C(F)(F)F)cc1 (some centres not stated) = 0

Now consider a different compound.
Exercise: Entry OC(c1cc(C(F)(F)F)nc2c(Cl)cc(Cl)cc12)C1CCCCN1 (configuration not stated) : call = ?
Key: 0

----------
Kindly state GI50 for each of the entries shown.
system: M14; assay: NCI tumour cell line growth inhibition, 48 h
Activity calls are given as the source filed them. No stated cut-off is given here; in the data, active = GI50 up to about 1.1 µM and inactive = higher.

C/C(=N\NC(=O)c1ccccc1O)c1c(O)cc(C)oc1=O = > 100 µM (inactive)
Oc1ccc(-c2nc3cc(C(F)(F)F)ccc3s2)cc1 = 15.5 µM (inactive)
COc1cccc(C=O)c1C(=O)c1cc(O)ccc1O = 17.9 µM (inactive)
CN/N=C(\C)c1c(O)cc(C)oc1=O = > 100 µM (inactive)
O=C1C[C@H](COCc2ccccc2)NC(=O)C[C@H](COCc2ccccc2)NC(=O)C[C@H](COCc2ccccc2)N1 = > 100 µM (inactive)
C=CCCC(=O)C(=[N+]=[N-])C(=O)CCC(=O)c1ccccc1 = > 10 µM (inactive)
COc1ccc([C@H]2C=C(c3cc(F)c(Cl)cc3Cl)NC(=S)N2)cc1 = 32.5 µM (inactive)
Cn1cc[n+](-c2cc(=O)n(C)c(=O)[n-]2)c1 = > 100 µM (inactive)

Would you mind listing GI50 for each of the following compounds?
1. CC(=O)c1c(O)ccc2c1CC(CC=O)O2 (stereo unspecified)
2. C[N+](C)(C)CC(=O)N/N=C(/Cc1cc(=O)oc2cc(O)ccc12)C(=O)Nc1ccc(Cl)cc1
3. CN(C(=O)Cc1ccc(Cl)c(Cl)c1)[C@@H]1CCCC[C@H]1[N+]1(C)CC=CC1

Key:
47.5 µM (inactive)
> 100 µM (inactive)
> 100 µM (inactive)

----------
test system: UACC-62; experiment: NCI tumour cell line growth inhibition, 48 h
The source made the active and inactive calls. Cut-off read from the data, not from the text of the source: active = GI50 up to about 1.1 µM and inactive = higher.
Experimental Readout: GI50

Here are 2 molecules together with their reported answers.
CC(C)=CC[C@H]1C[C@]2(CC=C(C)C)C(=O)[C@@](CC=C(C)C)(C(=O)C(C(=O)c3ccccc3)=C2O)C1(C)C [6-EPI-CLUSIANONE] = 3.44 µM (inactive)
Cc1c(C(=O)CC(=O)C(=O)Nc2ccccc2C(F)(F)F)[n+]([O-])c2ccccc2[n+]1[O-] = 18 µM (inactive)

Would you mind listing GI50 for each of the following molecules?
1. COC(=O)N/N=C(/CC1(O)C(=O)Nc2ccc([N+](=O)[O-])cc21)c1ccccc1 (stereo not given)
2. COc1ccc2c3c1OC1C(F)C=CC4(O)C(C2)NCCC314 (stereo not given)
3. O=C(c1ccc(NCN2C(=O)CCC2=O)cc1)c1ccc(NCN2C(=O)CCC2=O)cc1
4. CCCCCCCCCCCCNC(=S)OCCCC
5. CC(=O)O[C@H]1CC[C@@]2(C)C(=CC[C@@H]3[C@@H]2CC[C@](C)(c2nnc(C)o2)[C@H]3CC#N)C1

Key:
1. 24.7 µM (inactive)
2. 3.37 µM (inactive)
3. > 100 µM (inactive)
4. > 100 µM (inactive)
5. > 100 µM (inactive)

Would you mind listing GI50 for each of the following molecules?
1. CC1OC(n2cc(I)c(=O)[nH]c2=O)C=CC1=O (stereo not given)
2. Cc1ccc2[nH]c(Sc3c([N+](=O)[O-])ncn3C)nc2c1
3. Cc1cccc(C)c1N1C(=O)C(=O)C(c2nc3ccccc3s2)/C(=N/NC(=O)NN)C1=O (stereo not given)
4. C=C(Br)C(C)(Br)CCC(Br)C(C)(C)Cl (stereo not given)
5. CC[N+](CC)(CC)Cc1cc2ccccc2n1C(=O)OC
6. COC1C(CN[N+](=O)CC2OC3OC(C)(C)OC3C2OC)OC2OC(C)(C)OC21 (stereo not given)
7. COc1ccccc1Cc1ccc(C2C=CC3(CC(=O)C=C3C)C(=O)C2)o1 (stereo not given)

Key:
["17.2 µM (inactive)", "19 µM (inactive)", "> 100 µM (inactive)", "20.4 µM (inactive)", "> 100 µM (inactive)", "> 100 µM (inactive)", "13.9 µM (inactive)"]

----------
tested on: SR; assay: NCI tumour cell line growth inhibition, 48 h
The source made the active and inactive calls. Rule as the data show it: active = GI50 up to about 1.1 µM and inactive = higher.
Outcomes you can answer with include only these: active, inactive

Worked examples, 2 molecules total:
CCCCCCCCCCCCCP(=O)(OC)OC = inactive
C/C=C(\NC(=O)C(CCCCN)NC(=O)C(C)NC(=O)C1CSC(C)C(NC(=O)C2CSCC(NC(=O)C(C)NC(=O)C(N)C(C)CC)C(=O)NC(CCCCN)C(=O)NC(Cc3ccccc3)C(=O)NC(CC(C)C)C(=O)N2)C(=O)N2CCCC2C(=O)NCC(=O)N1)C(=O)NCC(=O)NC1CSCC2NC(=O)C(Cc3ccc(O)cc3)NC(=O)C(CSC=CNC2=O)NC(=O)C(CC(N)=O)NC(=O)C(Cc2ccccc2)NC1=O (stereo not drawn) = inactive

Exercise: Entry "O=C(CSc1nnc(-c2ccc(/N=C\c3ccc(Cl)cc3)cc2)o1)Nc1ccccc1Cl" : call = ?
Key: inactive

Exercise: Also, "O=C1C[C@H](COCc2ccccc2)NC(=O)C[C@H](COCc2ccccc2)NC(=O)C[C@H](COCc2ccccc2)N1" please.
Key: inactive

----------
tested on: HOP-62; test: NCI tumour cell line growth inhibition, 48 h
The source made the active and inactive calls. Cut-off read from the data, not from the text of the source: active = GI50 up to about 1.1 µM and inactive = higher.
Experimental Readout: GI50

FC(F)(Sc1ccccc1)c1nc2ccccc2o1 = > 100 µM (inactive)
Cc1nn(-c2ccccc2)c(C)c1/C=N/N=C1\S/C(=C\c2ccc(Cl)cc2)C(=O)N1c1ccccc1 = 20.1 µM (inactive)
CCOC(=O)[C@H]1Nc2ccccc2C2c3ccccc3CC21 (stereo partly specified) = > 100 µM (inactive)

Would you mind listing GI50 for each of the following compounds?
1. C=C=C[P+](c1ccccc1)(c1ccccc1)c1ccccc1
2. CC(C)(C)c1cc(C(=O)O)c(C(c2ccccc2)c2ccccc2C(=O)O)c(C(=O)O)c1 (stereo unspecified)
3. O=NN1CCN=C1c1ccc([N+](=O)[O-])cc1
4. CC(NC(=O)C(C)NC(=O)C(N)CCP(C)(=O)O)C(=O)O (stereo unspecified)
5. CCCN/C(N)=N/C#N
6. O=S(=O)(c1ccccc1)[C@H]1[C@@H]2O[C@@H]2C[C@@H]1O
7. C=C1C(=O)O[C@@H]2C(=O)[C@@H](C)CCC/C(C)=C/CC[C@@]3(C)O[C@@H]3C[C@@H]12

Key:
["53.1 µM (inactive)", "> 100 µM (inactive)", "> 100 µM (inactive)", "> 100 µM (inactive)", "> 100 µM (inactive)", "> 100 µM (inactive)", "> 100 µM (inactive)"]

Would you mind listing GI50 for each of the following compounds?
1. S=c1[nH]nc(Cn2c3ccc(Br)cc3c3nc4ccccc4nc32)o1
2. C=C1CC[C@@H]2[C@](C)(COC(=O)CCC(=O)OC)CCC[C@@]2(C)[C@@H]1CCC1=CC(=O)OC1
3. CN(CCNC(=O)c1cn(C)c2c1ccc1ccccc12)CCNC(=O)c1cn(C)c2c1ccc1ccccc12
4. COC(=O)C(Cc1nc2ccc(Cl)cc2nc1O)/C(=N/NC(N)=O)C(=O)Nc1ccc(Cl)cc1 (stereo unspecified)
5. COc1ccc(/C=N/Nc2nnc3c(n2)c2ccccc2c2nn(-c4ccccc4Cl)nc23)cc1
6. Nc1ccccc1/N=C/c1cc2cc([N+](=O)[O-])ccc2s1
7. COc1ccc(/C=C2/S/C(=N\c3ccccc3)N(NC(=O)Cc3ccccc3)C2=O)c(OC)c1

Key:
29.9 µM (inactive)
> 100 µM (inactive)
1.85 µM (inactive)
> 100 µM (inactive)
> 100 µM (inactive)
16.8 µM (inactive)
> 100 µM (inactive)

Would you mind listing GI50 for each of the following compounds?
1. COc1ccccc1C1C(Cl)C(=O)N1n1cnc2ccccc2c1=O (stereo unspecified)
2. O=C(O)CCC(C(=O)O)N1C(=O)C2C3CCC(C3)C2C1=O (stereo unspecified)

Key:
1: > 100 µM (inactive); 2: > 100 µM (inactive)

Would you mind listing GI50 for each of the following compounds?
1. Cn1c(=O)cc(Nc2ccc(N)cc2)[nH]c1=O
2. N#C/C(N)=C(C#N)/N=C/NCc1ccccc1

Key:
> 100 µM (inactive)
> 100 µM (inactive)
